Kindly supply the reported GI50 values for the records listed here.
- Test system: TK-10
- protocol_details: NCI tumour cell line growth inhibition, 48 h
Calls of active or inactive are those of the source. Rule as the data show it: active = GI50 up to about 1.1 µM and inactive = higher.

| compound | target_under_test | result |
| --- | --- | --- |
| CCCCOC(=O)C1CC[C@H]2[C@@H]3CCc4cc(OC(=O)c5cccc6c(=O)c7ccccc7[nH]c56)ccc4[C@H]3CC[C@]12C (stereo not given in full) | TK-10 | 7.96 µM (inactive) |
| COCOc1ccc(C2(O)Oc3cc(OCOC)ccc3C2C)c(O)c1 (stereo not given) | TK-10 | 17.9 µM (inactive) |
| COc1cc(OC(=O)c2c(O)cc(O)c(O)c2C)cc(C)c1C(=O)Oc1cc(C)c(C(=O)O)c(O)c1 | TK-10 | > 100 µM (inactive) |
| Cc1ccc(/C=N/Nc2cc(C)c3ccccc3n2)s1 | TK-10 | 30.8 µM (inactive) |
| CCCC(=O)OC(OC(=O)CCC)c1ccc([N+](=O)[O-])o1 | TK-10 | 19.4 µM (inactive) |

Hello, I would appreciate it if you could give GI50 for each entry below.
1. COc1ccc(OC)c(NC(=O)C(=O)NNC(=O)c2sc(NNC(C)=O)nc2C)c1
2. CCOC(=O)C1Cc2c(cc3c4c(cccc24)N(C(C)=O)C3)N(C)C1 (stereo not given)

Result ::
["88.3 µM (inactive)", "> 100 µM (inactive)"]

Hi team, please reply with GI50 for each item in this list.
1. O=C1c2ccc3ccccc3c2CCC1N1CCCCC1 (stereo not given)
2. COCCN1C2=CCCCC2=Nc2c(N)nc(N)nc21
3. COc1c(C)c(C/C=C(\C)CC/C=C(\C)CC/C=C(\C)CC/C=C(\C)CCC=C(C)C)c(OC)c(OC)c1OC

Result ::
1. 16.1 µM (inactive)
2. > 100 µM (inactive)
3. 24 µM (inactive)

====

Could you please report measured GI50 for the items listed next?
- System: U-251
- protocol_details: NCI tumour cell line growth inhibition, 48 h
Calls of active or inactive are those of the source. Cut-off read from the data, not from the text of the source: active = GI50 up to about 1.1 µM and inactive = higher.

| compound | GI50 |
| --- | --- |
| O=C1CC(c2ccc([N+](=O)[O-])cc2)C2(C(=O)NC(=S)NC2=O)C(c2ccc([N+](=O)[O-])cc2)C1 (stereo not given) | 18.7 µM (inactive) |
| CN1CCN(CN2C(=O)C3C4C=CC(C3C2=O)C2C(=O)N(CN3CCN(C)CC3)C(=O)C42)CC1 (stereo not given) | > 54.5 µM (inactive) |
| C=CCC(C(=O)O)c1ccccc1 (stereo not given) | > 100 µM (inactive) |
| Cc1ccc(NC(=O)S(N)(c2ccc(C)cc2)[N+](=O)[O-])cc1 (stereo not given) | > 100 µM (inactive) |
| Cl/C(=N\c1cccc2ccccc12)N(c1ccccc1)c1ccccc1 | 57.7 µM (inactive) |
| N#C/C(C(=O)Nc1ccccc1)=C(/N)N1CCCC1 | > 100 µM (inactive) |
| O=c1c(=O)c2cscc2c1=O | 4.75 µM (inactive) |
| O=C1c2ccc3ccccc3c2CCC1N1CCCCC1 (stereo not given) | 18.9 µM (inactive) |
| CC1OC(OC2C(OC(=O)[C@@H]3CC(C)(C)C[C@@H]4C5=CC[C@@H]6[C@@]7(C)C[C@H](O)[C@H](OC8OC(CO)C(O)C(O)C8O)[C@@](C)(CO)C7[C@H](O)C[C@@]6(C)[C@]5(C)C[C@@H](O)[C@H]43)OCC(O)C2O)C(O)C(O)C1O (stereo not given in full) | > 15 µM (inactive) |
| CCOC(=O)C1=COC(C)(CCc2ccccc2)CC1=O (stereo not given) | 41.3 µM (inactive) |

// for each compound below, give its GI50
1. NC(=O)N/N=C\CC(O)(C(F)(F)Cl)C(F)(F)Cl
2. COc1cc2c(cc1OC)C(=O)/C(=C/c1ccc([N+](=O)[O-])cc1)CC2
3. Cc1ccc(/C=C2\CCCC(CN(C)C)C2=O)cc1 (stereo not given)

Result ::
> 10 µM (inactive)
> 10 µM (inactive)
13.5 µM (inactive)

Hi team, please reply with GI50 for each item in this list.
1. COc1ccc(OC)c(NC(=O)C(=O)NNC(=O)c2sc(NNC(C)=O)nc2C)c1
2. CC1(C)S[C@@H]2[C@H](NC(=O)/C=C/c3ccccc3)C(=O)N2[C@H]1C(=O)O
3. O=C(O)c1cc(/C=C/c2cc(O)ccc2O)ccc1O
4. COc1c(C)c(C/C=C(\C)CC/C=C(\C)CC/C=C(\C)CC/C=C(\C)CCC=C(C)C)c(OC)c(OC)c1OC

Result ::
["36.6 µM (inactive)", "> 100 µM (inactive)", "> 10 µM (inactive)", "79.6 µM (inactive)"]

Dear reader, for each entry below, please note its GI50.
1. Cc1nc(N)sc1/N=N/c1cc(Cl)c([N+](=O)[O-])cc1Cl
2. CCCCCCCCCCCCOC(=N)N1CCOCC1
3. CN(C)Cc1cc(C(=O)/C=C/c2c(F)cccc2Cl)cc(CN(C)C)c1O

Result ::
16.3 µM (inactive)
9.46 µM (inactive)
10.8 µM (inactive)
